Every entry's value here was drawn from patent EP1369120B1.

Tested on: HCV sub-genomic replicons (Ava.5)
Test: microbe, parasite or virus in culture
Assay type: cell-based, hepatitis C virus
Settings: Hepatitis C virus, Ava5, 24 h

{"COMPOUND": "O=[As]O [Sodium arsenite]", "STUDY TARGET": "HCV sub-genomic replicons (Ava.5)", "EC50, nM": 250}
